Data provenance: paper PMC7558026

system tested: AbCGT (Aloe vera, UniProt A0A7G9P699)
Sequence (A0A7G9P699 entry or part of it): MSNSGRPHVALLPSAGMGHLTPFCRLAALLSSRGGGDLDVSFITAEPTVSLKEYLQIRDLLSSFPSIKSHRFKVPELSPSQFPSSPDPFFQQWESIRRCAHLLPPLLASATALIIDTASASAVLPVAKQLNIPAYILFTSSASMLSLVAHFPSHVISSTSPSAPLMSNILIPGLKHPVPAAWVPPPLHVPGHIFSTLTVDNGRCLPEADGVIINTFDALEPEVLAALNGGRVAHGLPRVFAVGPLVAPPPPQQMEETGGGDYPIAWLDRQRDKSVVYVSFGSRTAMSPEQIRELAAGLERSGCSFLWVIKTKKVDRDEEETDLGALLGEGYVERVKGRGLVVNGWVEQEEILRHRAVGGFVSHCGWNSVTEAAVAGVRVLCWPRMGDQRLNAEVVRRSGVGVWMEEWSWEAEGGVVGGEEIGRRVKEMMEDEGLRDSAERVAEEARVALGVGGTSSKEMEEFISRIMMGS
method summary: Glycosyltransferase activity assay, purified AbCGT (wild type) with aglycon acceptors and UDP-Glc
Type: biochemical, Aloe barbadensis
particulars: reaction-1
Entry flag: class 1 if WT/yield of O-glycoside(%) reaches 40%; class 0 if it does not.

In: Decide: WT/yield of O-glycoside(%) of CC(=O)c1ccc(O)cc1O [Compound 6, 2,4-dihydroxyacetophenone] >= 40%?
Out: class 1

----------
Overview of recorded V183E/yield of C-glycoside(%) for various compounds
system tested: AbCGT V183E (Aloe vera, UniProt A0A7G9P699, V183E)
Sequence (A0A7G9P699 1-470 V183E): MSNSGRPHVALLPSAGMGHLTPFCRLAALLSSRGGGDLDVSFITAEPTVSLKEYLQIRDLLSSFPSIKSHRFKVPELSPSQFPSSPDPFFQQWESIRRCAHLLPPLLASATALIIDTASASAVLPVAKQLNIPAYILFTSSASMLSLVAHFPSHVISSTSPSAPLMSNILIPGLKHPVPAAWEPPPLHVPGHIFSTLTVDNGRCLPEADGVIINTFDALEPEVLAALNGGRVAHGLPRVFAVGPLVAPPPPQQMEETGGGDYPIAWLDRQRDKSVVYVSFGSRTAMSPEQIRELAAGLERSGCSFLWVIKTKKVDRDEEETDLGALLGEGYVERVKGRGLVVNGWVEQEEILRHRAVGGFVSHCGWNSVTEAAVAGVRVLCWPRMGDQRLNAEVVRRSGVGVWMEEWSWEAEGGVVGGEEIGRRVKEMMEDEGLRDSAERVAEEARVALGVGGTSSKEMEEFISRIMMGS
method summary: Glycosyltransferase activity of AbCGT variant V183E
Type: biochemical, Aloe barbadensis
particulars: reaction-2
Give the number; % is assumed, so skip it.

Below are worked cases with known answers.
CC(=O)c1c(O)cc(C)cc1O [Compound 7] | 8.9
CC(=O)c1c(O)cccc1O [Compound 5] | 0
COc1cc(O)c(C(C)=O)c(OC)c1 [Compound 14] | 7.9
CC(=O)c1cccc(O)c1 [Compound 2] | 0
Oc1cc(O)cc(OCCCCCCc2ccccc2)c1 [Compound 22] | 0

In: Look up V183E/yield of C-glycoside(%): COc1cc(O)c(C(C)=O)c(O)c1 [Compound 13]
Out: 4.1

In: Requested read-out: V183E/yield of C-glycoside(%). Entry: CC(=O)c1ccc(O)cc1O [Compound 6, 2,4-dihydroxyacetophenone]
Out: 5.5

In: I have this compound here, CC(=O)c1cc(O)cc(O)c1 [Compound 4, 3,5-dihydroxyacetophenone] , and I need its recorded V183E/yield of C-glycoside(%).
Out: 0

In: Give the measured V183E/yield of C-glycoside(%) of CC(=O)c1ccc(O)cc1 [Compound 3] .
Out: 0
